Origin of the recorded values: patent US11957680B2

Target: PKR K410E (Homo sapiens, UniProt P30613, K410E)
Sequence (P30613 whole entry K410E): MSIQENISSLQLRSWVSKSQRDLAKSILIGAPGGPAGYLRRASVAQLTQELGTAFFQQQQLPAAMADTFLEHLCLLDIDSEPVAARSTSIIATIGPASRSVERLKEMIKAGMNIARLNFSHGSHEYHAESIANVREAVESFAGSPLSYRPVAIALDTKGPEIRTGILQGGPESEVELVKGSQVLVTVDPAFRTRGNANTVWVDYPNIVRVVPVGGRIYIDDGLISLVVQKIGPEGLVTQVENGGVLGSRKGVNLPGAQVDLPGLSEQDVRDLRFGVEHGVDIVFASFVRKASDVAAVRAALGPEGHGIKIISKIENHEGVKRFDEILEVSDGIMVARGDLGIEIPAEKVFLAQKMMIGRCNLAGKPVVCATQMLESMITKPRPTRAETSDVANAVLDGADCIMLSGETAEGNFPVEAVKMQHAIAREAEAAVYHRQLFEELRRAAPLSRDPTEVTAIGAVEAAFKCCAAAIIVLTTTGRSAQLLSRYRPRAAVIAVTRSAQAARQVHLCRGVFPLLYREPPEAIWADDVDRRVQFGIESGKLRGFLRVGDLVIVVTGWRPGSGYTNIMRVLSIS
Test: PKR mutant assay (K410E), AC50, LDH/NADH-coupled, absorbance at 340 nm
Details: Table 4; AC50, enzyme assay
endpoint label: EC50

Please review the entries below; each comes with its answer.
| molecule | system under test | recorded value |
| --- | --- | --- |
| Cn1ccc(CCn2ncc3c4sc(Cc5cc[nH]n5)nc4n(C)c3c2=O)n1 | PKR K410E (Homo sapiens, UniProt P30613, K410E) | < 300 nM |
| Cn1c2nc(Cc3cccc4[nH]c(=O)[nH]c34)sc2c2cnn(Cc3cccc4[nH]ncc34)c(=O)c21 | PKR K410E (Homo sapiens, UniProt P30613, K410E) | 301 to 800 nM |
| Cn1c2nc(Cc3cc[nH]n3)sc2c2cnn(Cc3cccc4sc(N)nc34)c(=O)c21 | PKR K410E (Homo sapiens, UniProt P30613, K410E) | < 300 nM |
| Cn1c2nc(Cc3cc[nH]n3)sc2c2cnn(Cc3nccc4[nH]ncc34)c(=O)c21 | PKR K410E (Homo sapiens, UniProt P30613, K410E) | < 300 nM |

Below is a list of molecules. For each, state its recorded EC50.
1. Cn1c2nc(Cc3cc[nH]n3)sc2c2cnn(Cc3cccc4[nH][nH]c(=O)c34)c(=O)c21
2. Cn1c2nc(Cc3cc[nH]n3)sc2c2cnn(Cc3cn4cccnc4n3)c(=O)c21
3. Cn1c2nc(Cc3cccc(N)n3)sc2c2cnn(Cc3cccc4[nH]ncc34)c(=O)c21
4. Cn1c2nc(Cc3cccc4[nH]nnc34)sc2c2cnn(Cc3cccc4[nH]ncc34)c(=O)c21
5. Cn1c2nc(Cc3csc(C(N)=O)n3)sc2c2cnn(Cc3cccc4[nH]ncc34)c(=O)c21
6. Cn1c2nc(Cc3cncs3)sc2c2cnn(Cc3cccc4[nH]ncc34)c(=O)c21

["< 300 nM", "301 to 800 nM", "< 300 nM", "< 300 nM", "> 800 nM", "< 300 nM"]

Below is a list of molecules. For each, state its recorded EC50.
1. Cn1c2nc(Cc3cnn[nH]3)sc2c2cnn(Cc3cccc4[nH]ncc34)c(=O)c21
2. Cn1c2nc(C(C(N)=O)c3cc[nH]n3)sc2c2cnn(Cc3cccc4[nH]ncc34)c(=O)c21 (stereo not drawn)
3. Cn1c2nc(Cc3n[nH]cc3F)sc2c2cnn(Cc3cccc4[nH]ncc34)c(=O)c21
4. Cn1c2nc(Cc3cc[nH]n3)sc2c2cnn(Cc3ccc4nc[nH]c4n3)c(=O)c21
5. Cn1ccc(CCn2ncc3c4sc(Cc5cccnc5)nc4n(C)c3c2=O)n1

1. < 300 nM
2. < 300 nM
3. < 300 nM
4. < 300 nM
5. > 800 nM

Below is a list of molecules. For each, state its recorded EC50.
1. CC(=O)c1cccc(CC(c2cc[nH]n2)c2nc3c(s2)c2cnn(Cc4cccc(C(C)=O)c4)c(=O)c2n3C)c1 (stereo not drawn)
2. Cn1c2nc(Cc3cc[nH]n3)sc2c2cnn(CCc3cccnc3)c(=O)c21
3. Cn1c2nc(Cc3ncsc3C(N)=O)sc2c2cnn(Cc3cccc4[nH]ncc34)c(=O)c21
4. Cn1c2nc(Cn3ccnc3)sc2c2cnn(Cc3cccc(C(N)=O)c3)c(=O)c21
5. C=CCn1ncc2c3sc(Cc4ccccn4)nc3n(C)c2c1=O
6. Cn1c2nc(Cc3cc(F)[nH]n3)sc2c2cnn(Cc3cccc4[nH]ncc34)c(=O)c21
7. Cn1c2nc(Cc3ccns3)sc2c2cnn(Cc3cccc4[nH]ncc34)c(=O)c21
8. Cn1c2nc(Cc3cc[nH]n3)sc2c2cnn(Cc3ccc4c(n3)NCC4)c(=O)c21

> 800 nM
> 800 nM
< 300 nM
> 800 nM
> 800 nM
< 300 nM
> 800 nM
< 300 nM
